# Assay Method Text: AUC (0 to infinity) in Sprague-Dawley rat at 10 mg/kg, po by HPLC-MS analysis
# Format: ADME, organism-based
# Set-up: dose 10 mg/kg, time infinity, route oral
# Condition Context: in vivo
Measured Quantity: AUC(0-inf)
Field: value (include unit after the number)

Could you tell me which AUC(0-inf) is on file for `Cc1ccc(NC(=O)C2(C(=O)Nc3ccc(Nc4ncc(F)c(-c5cc(F)c6nc(C)n(C(C)C)c6c5)n4)cc3)CC2)cc1` ?
6000 ng·h/mL

###

# Assay Method Text: Tmax in Sprague-Dawley rat at 10 mg/kg, iv by HPLC-MS analysis
# Format: ADME, organism-based
# Condition Context: in vivo
Measured Quantity: Tmax (min)
One number for each entry, in min.

Please report the recorded Tmax for `Cc1ccc(NC(=O)C2(C(=O)Nc3ccc(Nc4ncc(F)c(-c5cc(F)c6nc(C)n(C(C)C)c6c5)n4)cc3)CC2)cc1` .
5

###

# Assay Method Text: n-octanol/phosphate buffered saline partition coefficient, log D of the compound measured at pH 7.4 by shake flask method based HPLC analysis
# Type: physicochemical
Measured Quantity: logD
Numbers only.

Can you share its logD? I mean this compound: `Cc1ccc(NC(=O)C2(C(=O)Nc3ccc(Nc4ncc(F)c(-c5cc(F)c6nc(C)n(C(C)C)c6c5)n4)cc3)CC2)cc1`
2.51

###

# Assay Method Text: Cmax in Sprague-Dawley rat at 10 mg/kg, iv by HPLC-MS analysis
# Assay type: ADME, organism-based
# Design: dose 10 mg/kg, route intravenous
# Condition Context: in vivo
Measured Quantity: Cmax (ng/mL)
Numbers only, in ng/mL.

// Cmax lookup, key: `Cc1ccc(NC(=O)C2(C(=O)Nc3ccc(Nc4ncc(F)c(-c5cc(F)c6nc(C)n(C(C)C)c6c5)n4)cc3)CC2)cc1`
7000
